# target_or_test_system: Torsin-1A-interacting protein 1 (Homo sapiens)
# assay_explanation: LAP1 binders from COS7 cell lysate, primary screen, small-molecule microarray, 635/667 nm fluorescence (AID 1116)
# condition_info: COS7-hLAP1 lysate binding, 635 nm fluorescence, higher = more signal
observation_type: composite z-score
Lab note: jot down the number only; don't add units.

>  <molecule>
C=CC[C@@H]1C=C[C@H](ON=C(C)CCC(=O)OC[C@H]2O[C@H](c3ccccc3)C=C[C@@H]2Oc2ccc(OC)cc2)[C@@H](CO)O1

>  <numeric_readout>
0.106

$$$$
>  <molecule>
CC(CCN1CCc2nc(-c3ccccc3)c(-c3ccccc3)cc2C1)=NOC[C@@H](O)COCc1ccco1

>  <numeric_readout>
0.323

$$$$
>  <molecule>
CO[C@H]1COC(=O)CCC[C@@H](C)[C@H](OC)COC(=O)[C@@H]2CCCN2C(=O)CC=C[C@@H]1C

>  <numeric_readout>
1.09

$$$$

Form: molecule = `Cn1c(=O)n2n(c1=O)[C@H]1[C@H](O)[C@@H]3O[C@@H]3C(=NOCc3ccccc3)[C@H]1CC2` ; composite z-score = -0.0588

# molecule `CO[C@H]1COC(=O)[C@H](C)NC(=O)[C@@H](C)COC(=O)[C@H]2CCCN2C(=O)CC=C[C@H]1C` ; its composite z-score = 0.109

// recorded composite z-score for `C=CC[C@@H]1C=C[C@H](ON=C(C)CCN2CCc3nc(-c4ccccc4)c(-c4ccccc4)cc3C2)[C@@H](CO)O1` : 0.782

For this molecule ( `C[C@@H](c1ccccc1)N1C(=O)[C@H]2[C@H]3[C@H](O)[C@H](O)CC(=NOCc4ccccc4)[C@H]3CC[C@H]2C1=O` ), measured composite z-score is 0.826

Entry `CC(C)=NO[C@H](C)c1cn([C@H](CO)Cc2ccccc2)nn1` , composite z-score reported as -0.197

So for `COC(=O)[C@@H]1CC[C@H](C)[C@@H](c2ccc(C)cc2)N1C(=O)c1ccc(C=NOC[C@@H](C)[C@H](OCc2ccccc2)C(C)C)cc1` , the logged composite z-score turned out to be 1.27

---

# assay_explanation: binders of probe aFGF10 on microarray, primary screen, stem cell growth factor project, biochemical, small-molecule microarray, fluorescence 635/667 (AID 1071);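 note: score merges 667 nm spot intensity and signal to noise from triplicate slides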
# condition_info: higher = more signal
Item-by-item account of composite z-score
// no unit string in output, number only

Observe how each entry below is paired with its result.
>  <molecule>
C[C@@H]1CC[C@H]2C(=O)O[C@@H](Cc3ccccc3)CN2[C@H]1c1ccc(Br)cc1

>  <composite z-score>
-0.112

$$$$
>  <molecule>
COc1ccc(O[C@H]2C=C[C@@H](c3ccccc3)O[C@@H]2CON=CC[C@@H]2C=C[C@H](OC(C)=O)[C@@H](COC(C)=O)O2)cc1

>  <composite z-score>
0.138

$$$$
>  <molecule>
CC(CCN1CCc2nc(-c3ccccc3)c(-c3ccccc3)cc2C1)=NOC[C@@H](O)COCc1ccco1

>  <composite z-score>
0.111

$$$$
>  <molecule>
CO[C@H]1COC(=O)[C@@H](C)COC(=O)[C@H](COCc2ccccc2)NC(=O)CC=C[C@H]1C

>  <composite z-score>
-0.607

$$$$
>  <molecule>
C#CCCCON=C1C[C@@H](O)[C@@H](O)[C@@H]2[C@@H]3C(=O)N(Cc4ccccc4)C(=O)[C@@H]3CC[C@@H]12

>  <composite z-score>
0.0443

$$$$

composite z-score recorded for this molecule, CCOC(=O)[C@H](Cc1ccccc1)NC(=O)CCC1CC(OC(=O)NCc2cccc3ccccc23)CC2(CCCC(COC(=O)NCc3cccc(C(F)(F)F)c3)O2)O1 (stereo not given in full) , is 0.19

The reported value for C[C@H]1CC[C@H]2C(=O)OC(CO)CN2[C@@H]1c1ccc(Br)cc1 (stereo not given in full) in terms of composite z-score is -0.0786

---

# assay_explanation: basal S. cerevisiae growth modulation, no modifier, primary screen, OD600, strain BY4716, 24 h, basal condition (AID 1173)
# condition_info: OD600, 24 h, higher = more signal, called active from +8 up or from −8 down
observation_type: z-score
In your answer, state the number alone without any accompanying words.

Lab note: `CO[C@@H]1COC(=O)[C@H](CCSC)NC(=O)CC=C[C@@H](C)COC(=O)CCC[C@H]1C` gave z-score of -0.509

Memo: `O=C1[C@H]2[C@H]3[C@H](O)[C@H](O)CC(=NO[C@@H]4O[C@H](CO)[C@@H](O)[C@H](O)[C@H]4O)[C@H]3CC[C@H]2C(=O)N1c1cccc(Oc2ccccc2)c1` , reported z-score: 0.439

Lab note: measured z-score of `CO[C@H]1COC(=O)[C@@H](C)COC(=O)[C@@H](OCc2ccccc2)C=C[C@@H]1C` was -0.471

Looking up `COc1cccc([C@H]2Oc3ccc(OC)cc3C(=NOC[C@@H](O)[C@H]3O[C@@H]4OC(C)(C)O[C@@H]4[C@H]3O)[C@@H]2O)c1` , I see its z-score listed as -6.98

Recorded z-score (molecule CCOC(=O)[C@H](Cc1ccccc1)NC(=O)CCC1CC(OC(=O)NCCc2ccc(F)cc2)CC2(CCCC(COC(=O)NCCOC)O2)O1 (some centres undefined) ): -0.664

CCOC(=O)[C@H](CC(C)C)NC(=O)CCC1CC(OC(=O)NCc2cccc3ccccc23)CC2(CCCC(COC(=O)NCC3CCCCC3)O2)O1 (some centres undefined) has a reported z-score of -0.0452

Reported z-score ( `CCOC(=O)NN=C1C[C@@H](O)[C@@H](O)[C@@H]2[C@@H]3C(=O)N(c4cccc(Oc5ccccc5)c4)C(=O)[C@@H]3CC[C@H]12` ) = -0.946

---

# Test system: Fibrinogen (Alexa647-labelled)
# assay_explanation: fibrinogen binders on compound microarrays, profiling panel, artefact control for SMM control-protein annotation, biochemical, small-molecule microarray, 635/667 nm fluorescence (AID 1131);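 note: z-score merges 667 nm fluorescence with per-spot signal-to-noise over triplicate slides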
# condition_info: fibrinogen-A647 binding fluorescence, higher = more signal
observation_type: composite z-score
Output spec: single numeric token, no unit.

>  <compound>
CO[C@H]1COC(=O)[C@H](C)NC(=O)CC=C[C@@H](C)[C@H](OC)COC(=O)[C@@H](OCc2ccccc2)C=C[C@@H]1C

>  <numeric_readout>
0.029

$$$$
>  <compound>
CC(CCN1CCCCc2nc(C)c(C)cc21)=NOC[C@@H](O)COCc1ccco1

>  <numeric_readout>
-0.426

$$$$
>  <compound>
CCOC(=O)[C@H](CC(C)C)NC(=O)CCC1CC(OC(=O)NCCc2ccc(F)cc2)CC2(CCCC(COC(=O)NCCc3ccccc3OC)O2)O1 (some centres not stated)

>  <numeric_readout>
0.956

$$$$

Briefly, composite z-score measured for `O=C1C=C[C@@H](O)[C@@H]2[C@@H]3C(=O)N(C[C@@H]4CCCO4)C(=O)[C@@H]3CC[C@@H]12` : 0.418

GET /value?item= `O=C1C[C@@H](O)[C@@H](O)[C@@H]2[C@@H]3C(=O)N(C[C@@H]4CCCO4)C(=O)[C@@H]3CC[C@H]12` &field=composite z-score returns 0.684

The compound listed as `CO[C@@H]1C=CCC(=O)N2CCC[C@H]2C(=O)OC[C@@H](C)C(=O)OC[C@H]1C` shows composite z-score equal to -0.294

Notebook: CCOC(=O)[C@H](CC(C)C)NC(=O)CCC1CC(OC(=O)NCCc2ccc(F)cc2)CC2(CCCC(COC(=O)NCCOc3ccccc3)O2)O1 (some centres not stated) , composite z-score read as 0.985

---

# assay_explanation: RPMI8226 myeloma cell viability, profiling panel, resazurin fluorescence, basal, 24 h, PK04 Diversity Set (AID 1180);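 note: RPMI8826 multiple myeloma cell line at 5000 cells per well; test concentration not given here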
# condition_info: higher = more signal
Classes based on z-score: low bin (below -0.007), mid bin (-0.007 to below 0.3), high bin (0.3 or more)

Check out these entries, answers already filled in.
>  <compound>
CO[C@@H]1COC(=O)CC=C[C@@H](C)[C@H](OC)COC(=O)[C@@H](C)COC(=O)CC=C[C@H]1C

>  <category>
mid bin

$$$$
>  <compound>
CC=CC1=C(CO)C(=O)[C@@H]2O[C@@H]2C1=O

>  <category>
low bin

$$$$
>  <compound>
CCOC(=O)CCN1C(=O)[C@H]2[C@H]3[C@H](O)[C@H](O)CC(=NOCc4ccccc4)[C@H]3CC[C@H]2C1=O

>  <category>
low bin

$$$$
>  <compound>
CO[C@@H]1C=CCC(=O)N2CCC[C@H]2C(=O)OC[C@@H](C)C(=O)OC[C@H]1C

>  <category>
mid bin

$$$$
>  <compound>
COc1cc(O)c(C(=O)C=Cc2ccc3c(c2)OCO3)c(OC)c1

>  <category>
low bin

$$$$
>  <compound>
CON=Cc1ccc(C(=O)N2[C@H](c3ccc(C)cc3)[C@@H](C)CC[C@H]2C(=O)OC)cc1

>  <category>
high bin

$$$$

Which z-score category applies to `C#CCCCON=C1C[C@@H](O)[C@@H](O)[C@@H]2[C@@H]3C(=O)N(CCC(=O)OCC)C(=O)[C@@H]3CC[C@H]12` here?
low bin

Looking at `O=C1C[C@@H](O)[C@@H](O)[C@@H]2[C@@H]3C(=O)N(c4cccc(Oc5ccccc5)c4)C(=O)[C@@H]3CC[C@H]12` , which class would you pick?
mid bin

Which z-score category applies to `C[C@@H](c1ccccc1)N1C(=O)[C@H]2[C@H]3[C@H](O)[C@H](O)CC(=NO[C@@H]4O[C@H](CO)[C@@H](O)[C@H](O)[C@H]4O)[C@H]3CC[C@H]2C1=O` here?
high bin

Any idea which band COC(=O)[C@H](C)NC(=O)CCC1CC(OC(=O)NCc2ccc3c(c2)OCO3)CC2(CCCC(COC(=O)NCC(c3ccccc3)c3ccccc3)O2)O1 (stereo partly specified) is in?
low bin

Which category fits this record: Cc1ccc(S(=O)(=O)NC(CCc2ccccc2)CC(=O)C(C)(C)C)cc1 (stereo unspecified)
mid bin

Just checking, what class would you give `C[C@@H]1CC[C@H]2C(=O)O[C@@H](COc3ccc(C(C)(C)C)cc3)CN2[C@@H]1c1ccc(Br)cc1` here?
high bin

Which class does `O=C1C[C@@H](O)[C@@H](O)[C@@H]2[C@@H]3C(=O)N(C[C@@H]4CCCO4)C(=O)[C@@H]3CC[C@@H]12` fall in?
low bin

Which z-score band matches `CO[C@H]1COC(=O)CC=C[C@H](C)[C@@H](OC)COC(=O)[C@@H](C)NC(=O)CC=C[C@@H]1C` ?
high bin

Lab note: sort CCOC(=O)[C@H](Cc1ccccc1)NC(=O)CCC1CC(OC(=O)NCCc2ccc(F)cc2)CC2(CCCC(COC(=O)NCc3ccccc3)O2)O1 (stereo partly specified) into the matching z-score band.
mid bin

Band for `CO[C@H]1COC(=O)[C@@H](C)COC(=O)[C@H](C)NC(=O)CC=C[C@H]1C` ?
high bin

Determine which band this compound sits in: CCOC(=O)[C@H](CC(C)C)NC(=O)CCC1CC(OC(=O)NCCc2ccc(F)cc2)CC2(CCCC(COC(=O)NCC(c3ccccc3)c3ccccc3)O2)O1 (stereo partly specified)
high bin

Class? Entry: `COC(=O)CC=C[C@@H](C)[C@@H](C=NO[C@H](C)c1cn([C@H](CO)Cc2ccccc2)nn1)NS(=O)(=O)c1ccc(C)cc1`
mid bin

Please report the category associated with COC(=O)[C@H](C)NC(=O)CCC1CC(OC(=O)NCc2ccc3c(c2)OCO3)CC2(CCCC(COC(=O)NCC3CCCCC3)O2)O1 (stereo partly specified) , nothing else.
low bin

GET /class?item= `C#CCCCON=C1C[C@@H](O)[C@@H](O)[C@@H]2[C@@H]3C(=O)N(c4cccc(Oc5ccccc5)c4)C(=O)[C@@H]3CC[C@H]12`
high bin

Would you mind sorting `O=C(NN=C1C[C@@H](O)[C@@H](O)[C@@H]2[C@@H]3C(=O)N(C[C@@H]4CCCO4)C(=O)[C@@H]3CC[C@@H]12)OCc1ccccc1` into the appropriate category?
low bin

Textbook exercise: identify the category of the compound given here, `COC(=O)C1=C(C)N(Cc2ccccc2)[C@]23O[C@](C(=O)OC)(C(=O)N2[C@@H]1c1ccccc1)C(C(=O)OC)=C3C(=O)OC` , according to its measured value.
high bin

Would you mind sorting `CO[C@@H]1COC(=O)[C@@H]2CCCN2C(=O)[C@@H](C)COC(=O)CC=C[C@H]1C` into the appropriate category?
mid bin
